src = patent US20250257130A1

# testTarget: T1, human ROR1 on cells (HEK293T-hROR1, PANC-1, A549) (human, UniProt Q01973 30-937)
# T1 construct: whole, on cells; one molecule for the three cell lines; also called huROR1; cell surface ROR1
# T1 sequence (Q01973 30-937): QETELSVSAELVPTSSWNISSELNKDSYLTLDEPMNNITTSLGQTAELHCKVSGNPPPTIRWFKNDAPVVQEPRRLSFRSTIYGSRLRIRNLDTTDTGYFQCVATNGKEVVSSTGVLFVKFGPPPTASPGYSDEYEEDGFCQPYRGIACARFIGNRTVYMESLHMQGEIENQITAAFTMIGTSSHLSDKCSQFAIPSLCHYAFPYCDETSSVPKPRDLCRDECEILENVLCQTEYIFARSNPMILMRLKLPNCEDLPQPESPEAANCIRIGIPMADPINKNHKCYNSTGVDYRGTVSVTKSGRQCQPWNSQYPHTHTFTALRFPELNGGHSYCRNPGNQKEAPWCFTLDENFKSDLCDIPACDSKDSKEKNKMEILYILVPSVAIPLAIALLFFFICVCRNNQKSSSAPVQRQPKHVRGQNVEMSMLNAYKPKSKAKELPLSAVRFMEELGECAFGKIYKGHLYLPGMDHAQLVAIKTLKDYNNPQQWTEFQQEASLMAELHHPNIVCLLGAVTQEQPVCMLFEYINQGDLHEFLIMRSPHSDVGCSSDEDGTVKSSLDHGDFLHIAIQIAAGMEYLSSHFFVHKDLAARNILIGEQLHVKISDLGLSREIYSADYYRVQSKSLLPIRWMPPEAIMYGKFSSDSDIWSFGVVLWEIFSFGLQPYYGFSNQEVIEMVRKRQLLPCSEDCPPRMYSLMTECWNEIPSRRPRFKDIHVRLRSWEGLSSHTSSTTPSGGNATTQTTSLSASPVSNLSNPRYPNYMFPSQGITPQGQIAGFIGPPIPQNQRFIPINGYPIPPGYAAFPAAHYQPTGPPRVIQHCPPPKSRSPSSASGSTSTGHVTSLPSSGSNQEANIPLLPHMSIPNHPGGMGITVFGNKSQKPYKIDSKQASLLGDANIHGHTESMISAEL
# assayNotes: flow cytometry, PANC-1 cells
quantityMeasured: MAX(MFI)

INSERT INTO assay_data (binder, quantitymeasured, valueobserved) VALUES
  ('PR303125 (antibody, human IgG1, V domains shown, HCAb (heavy chain-only, human IgG1 Fc), no light chain) VH: EVQLLESGGGLVQPGGSLRLSCAASGFTFSSHAMSWVRQAPGKGLEWVSAISGSGDSTHYAASVKGRFTISRDNSKNTLYLQMNSLRAEDTAVYYCETLLRFLESLGNDGFKIWGQGTMVTVSS', 'MAX(MFI)', 883000),
  ('PR303199 (antibody, human IgG1, V domains shown, HCAb (heavy chain-only, human IgG1 Fc), no light chain) VH: EVQLVESGGGLVKPGGSLRLSCAASGFTFSDYYMSWIRQAPGKGLEWIAYISSSGSTIYYADSVKGRFTISRDNAKNSLYLQMNSLRAEDTAIYYCAREYYGSENYDHFDYWGQGTLVTVSS', 'MAX(MFI)', 462000);
